# Tested on: Influenza A virus
# Assay comment: Antiviral activity against VSV-G pseudotyped Influenza A virus infected in human SupT1 cells after 48 hrs by firefly luciferase reporter gene assay
# Type: functional, organism-based
# Test context: SUP-T1, 48 h
pIC50: −log10 of the molar value.
Entries and their pIC50 values follow.

Compound smiles: CC(=O)C[C@H]1OCc2cc(O)c3c(c21)O[C@]1(C3)[C@H](C)CC[C@H]2C(C)(C)[C@H](O)CC[C@@]21C
System name: Influenza A virus
pIC50: 4.63 to 4.91

pIC50 recorded for this compound, CC(=O)/C=C/c1c(CO)cc(O)c2c1O[C@]1(C2)[C@H](C)CC[C@H]2C(C)(C)[C@H](O)CC[C@@]21C , is 4.63 to 4.91

pIC50 recorded for this compound, CC(=O)O[C@@H]1CC[C@@]2(C)[C@@H](CC[C@@H](C)[C@]23Cc2c(O)cc4c(c2O3)COC4=O)C1(C)C , is 4.63 to 4.91

pIC50 recorded for this compound, CC(=O)C[C@@H]1OCc2cc(O)c3c(c21)O[C@]1(C3)[C@H](C)CC[C@H]2C(C)(C)[C@H](O)CC[C@@]21C , is 4.63 to 4.91

pIC50 recorded for this compound, CC(=O)O[C@@H]1CC[C@@]2(C)[C@@H](CC[C@@H](C)[C@]23Cc2c(O)cc(C)c(C=O)c2O3)C1(C)C , is 4.63 to 4.91

pIC50 recorded for this compound, NC(=O)c1ncn([C@@H]2O[C@H](CO)[C@@H](O)[C@H]2O)n1 , is 8.70
